experimental.system: mouse Tas2r144 (Mus musculus)
Construct: expressed in transfected cells; host or cells: HEK293T-Gα16gust44
Sequence (Q7TQB8 whole entry): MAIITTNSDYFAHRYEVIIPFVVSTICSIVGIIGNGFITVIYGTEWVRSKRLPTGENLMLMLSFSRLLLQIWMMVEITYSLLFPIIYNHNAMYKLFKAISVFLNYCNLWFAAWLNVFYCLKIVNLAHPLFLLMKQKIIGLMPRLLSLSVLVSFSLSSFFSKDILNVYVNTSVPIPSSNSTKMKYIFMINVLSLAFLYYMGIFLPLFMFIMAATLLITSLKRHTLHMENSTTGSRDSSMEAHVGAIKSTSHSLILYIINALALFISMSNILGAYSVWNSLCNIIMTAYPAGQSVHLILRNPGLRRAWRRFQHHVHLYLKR
experiment.notes: Calcium imaging assay (FLIPR), HEK293T-Gα16gust44 cells transfected with mouse Tas2r144
Format: cell-based
applied.conditions: Time 6 s
outcome.measure: RLU (RLU)
Your answer should be a plain number; it is taken to be in RLU.

molecule: C[C@H](CCC(=O)NCC(=O)O)[C@H]1CC[C@H]2[C@@H]3[C@H](O)C[C@@H]4C[C@H](O)CC[C@]4(C)[C@H]3C[C@H](O)[C@]12C [Glycocholic Acid, glycocholic acid]
outcome.measure: RLU
value.reported: -0.4257

INPUT: Form field: reported RLU of C[C@H](CCC(=O)O)[C@H]1CC[C@H]2[C@@H]3[C@H](O)C[C@@H]4C[C@H](O)CC[C@]4(C)[C@H]3C[C@H](O)[C@]12C [Cholic Acid, cholic acid]
OUTPUT: -45.6095

INPUT: What value of measured RLU is listed for C[C@H](CCC(=O)NCCS(=O)(=O)O)[C@H]1CC[C@H]2[C@@H]3CC[C@@H]4C[C@H](O)CC[C@]4(C)[C@H]3CC[C@]12C [Taurolithocholic Acid, taurolithocholic acid] ?
OUTPUT: -11.922

INPUT: # RLU lookup, item C[C@H](CCC(=O)NCCS(=O)(=O)O)[C@H]1CC[C@H]2[C@@H]3[C@H](O)C[C@@H]4C[C@H](O)CC[C@]4(C)[C@H]3C[C@H](O)[C@]12C [Taurocholic Acid, taurocholic acid]
OUTPUT: 2.885
